# Target: Leucine-rich repeat serine/threonine-protein kinase 2 (Homo sapiens) (UniProt Q5S007)
# Sequence (Q5S007 whole entry): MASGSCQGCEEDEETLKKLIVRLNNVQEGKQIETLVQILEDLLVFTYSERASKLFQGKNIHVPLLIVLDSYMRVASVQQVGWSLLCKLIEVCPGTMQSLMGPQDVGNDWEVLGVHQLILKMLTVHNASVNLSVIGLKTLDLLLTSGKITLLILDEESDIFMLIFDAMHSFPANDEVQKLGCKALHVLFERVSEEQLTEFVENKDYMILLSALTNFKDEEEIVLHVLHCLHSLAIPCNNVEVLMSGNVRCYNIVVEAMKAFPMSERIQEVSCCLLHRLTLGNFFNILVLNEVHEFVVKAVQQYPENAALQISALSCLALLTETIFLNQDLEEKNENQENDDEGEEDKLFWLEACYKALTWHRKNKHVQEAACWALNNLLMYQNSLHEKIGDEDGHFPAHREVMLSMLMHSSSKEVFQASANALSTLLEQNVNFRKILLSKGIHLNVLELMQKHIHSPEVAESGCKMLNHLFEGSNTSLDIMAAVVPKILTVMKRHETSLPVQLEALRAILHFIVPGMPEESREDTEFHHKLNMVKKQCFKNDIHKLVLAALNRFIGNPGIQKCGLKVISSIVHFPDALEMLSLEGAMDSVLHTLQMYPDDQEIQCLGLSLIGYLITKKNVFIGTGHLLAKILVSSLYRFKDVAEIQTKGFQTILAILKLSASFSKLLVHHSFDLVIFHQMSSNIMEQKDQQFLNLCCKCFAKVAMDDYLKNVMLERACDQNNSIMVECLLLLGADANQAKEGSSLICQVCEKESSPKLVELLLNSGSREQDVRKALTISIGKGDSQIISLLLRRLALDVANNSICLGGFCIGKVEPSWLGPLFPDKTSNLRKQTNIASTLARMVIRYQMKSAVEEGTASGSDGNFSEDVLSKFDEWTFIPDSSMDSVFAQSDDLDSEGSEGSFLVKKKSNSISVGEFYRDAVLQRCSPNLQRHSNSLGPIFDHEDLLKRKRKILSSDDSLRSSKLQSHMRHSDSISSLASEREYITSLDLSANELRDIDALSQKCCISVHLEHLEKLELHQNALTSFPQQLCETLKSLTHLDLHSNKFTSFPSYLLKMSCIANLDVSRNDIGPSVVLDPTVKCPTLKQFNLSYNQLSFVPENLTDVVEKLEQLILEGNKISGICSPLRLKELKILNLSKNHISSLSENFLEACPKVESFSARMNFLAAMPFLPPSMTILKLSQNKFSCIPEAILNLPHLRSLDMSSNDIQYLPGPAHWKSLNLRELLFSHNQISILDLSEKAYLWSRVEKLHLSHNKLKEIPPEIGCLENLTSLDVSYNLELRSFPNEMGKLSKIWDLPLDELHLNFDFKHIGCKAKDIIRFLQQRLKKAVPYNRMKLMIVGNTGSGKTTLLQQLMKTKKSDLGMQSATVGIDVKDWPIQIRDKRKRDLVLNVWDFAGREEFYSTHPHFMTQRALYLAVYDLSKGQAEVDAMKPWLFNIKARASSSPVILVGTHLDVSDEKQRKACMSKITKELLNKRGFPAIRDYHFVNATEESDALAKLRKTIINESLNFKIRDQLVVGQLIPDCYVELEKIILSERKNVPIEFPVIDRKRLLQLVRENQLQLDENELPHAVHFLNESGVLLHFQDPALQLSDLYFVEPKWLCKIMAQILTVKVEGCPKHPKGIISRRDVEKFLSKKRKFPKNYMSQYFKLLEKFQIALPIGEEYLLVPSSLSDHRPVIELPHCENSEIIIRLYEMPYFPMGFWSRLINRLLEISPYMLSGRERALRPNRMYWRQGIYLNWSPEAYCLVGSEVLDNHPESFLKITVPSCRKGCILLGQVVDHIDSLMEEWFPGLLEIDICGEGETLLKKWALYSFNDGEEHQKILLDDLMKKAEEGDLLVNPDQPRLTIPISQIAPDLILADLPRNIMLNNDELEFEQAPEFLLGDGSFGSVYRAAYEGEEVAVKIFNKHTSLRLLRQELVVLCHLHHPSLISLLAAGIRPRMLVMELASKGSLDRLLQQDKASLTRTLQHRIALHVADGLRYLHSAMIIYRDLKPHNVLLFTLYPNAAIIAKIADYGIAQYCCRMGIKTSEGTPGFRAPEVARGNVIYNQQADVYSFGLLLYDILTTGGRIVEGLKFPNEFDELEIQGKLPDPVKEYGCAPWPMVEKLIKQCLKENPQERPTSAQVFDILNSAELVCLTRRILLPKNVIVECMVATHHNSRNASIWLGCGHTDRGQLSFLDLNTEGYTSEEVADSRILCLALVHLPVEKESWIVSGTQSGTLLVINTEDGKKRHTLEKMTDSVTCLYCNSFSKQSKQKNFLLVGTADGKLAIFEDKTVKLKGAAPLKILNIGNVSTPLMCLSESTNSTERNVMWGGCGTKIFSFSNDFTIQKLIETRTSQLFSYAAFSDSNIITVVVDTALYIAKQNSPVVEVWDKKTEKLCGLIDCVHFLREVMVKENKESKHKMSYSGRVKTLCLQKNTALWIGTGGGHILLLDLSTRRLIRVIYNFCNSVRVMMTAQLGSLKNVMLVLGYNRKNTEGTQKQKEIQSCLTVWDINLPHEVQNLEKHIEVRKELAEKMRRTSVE
# Cond: at 0.1 µM
Kindly state inhibition for each of the entries shown.
Entry rule: numbers only, all in %.

IN: Report inhibition for CS(=O)(=O)CCNCc1ccoc1-c1ccc2ncnc(Nc3ccc(OCc4ccccc4)cc3)c2c1 tested on Leucine-rich repeat serine/threonine-protein kinase 2 (Homo sapiens) (UniProt Q5S007).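 Further: reported values are averaged percent inhibition of LRRK2 kinase.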
OUT: 1.37

IN: Subsequent entry: CCn1c(-c2nonc2N)nc2cncc(C(=O)NCCNC)c21
OUT: 6.11

IN: COc1ccc(-c2nn3ncccc3c2-c2ccnc(Nc3ccc(F)c(F)c3)n2)cc1 , same question.
OUT: 5.52

IN: Quick one: Cc1cc(O)cc(C)c1/C=C/c1cncc(C(=O)OC(C)(C)C)c1
OUT: 6.27

IN: Moving on to the next compound: COc1cc2c(cc1Nc1nc(Nc3cccc(F)c3C(N)=O)c3cc[nH]c3n1)N(C(=O)CN1CCN(C(C)C)CC1)CC2
OUT: 25.8

IN: Also COC(=O)Nc1nc2cc(Oc3ccc(NC(=O)Nc4ccccc4)cc3)ccc2[nH]1 , if possible.
OUT: 3.5

IN: Now give it for CNC(=O)c1cncc(/C=C/c2ccccc2C)c1 too.
OUT: 3.81

IN: Try the compound COc1ccc2ncn(-c3cc(O[C@H](C)c4ccccc4C(F)(F)F)c(C(N)=O)s3)c2c1
OUT: 4.72

IN: Next entry: COc1ccc(Nc2ncc(-c3ccccc3)o2)cc1OC
OUT: 1.05

IN: Would you mind doing FC(F)(F)CNc1nccc(-c2cnn3ncccc23)n1 as well?
OUT: 3.07

IN: Item: Cc1nnc(-c2cccc(-c3ccc(C(=O)NCC4CC4)cc3)c2)o1
OUT: 3.32

IN: Another compound to check: Cc1cc(O)cc(C)c1/C=C/c1cncc(C(N)=O)c1
OUT: 1.8

IN: Now consider COc1cccc(Nc2nccc(-c3cnn4ncccc34)n2)c1 and answer again.
OUT: 9.98

IN: Proceed to NS(=O)(=O)c1cccc(N/C=C2\C(=O)Nc3ccccc32)c1
OUT: 3.41

IN: Now the same for COc1c(C(N)=O)cc(-c2ccc(Cl)cc2)cc1-c1ccc(S(N)(=O)=O)cc1
OUT: -0.34

IN: Please give the result for c1ccc(-c2n[nH]cc2-c2ccnc(-c3ccc(OCCn4ccnc4)cc3)c2)nc1 too.
OUT: 0.79

IN: Also need COc1cccc(-n2ncc3c(N/N=C/c4ccc(C(=O)NCCN(C)C)cc4)ncnc32)c1 , thanks.
OUT: 8.48

IN: Request: Cc1ccc(-c2cc3c(NC(=O)C4CC4)ncnc3o2)cc1
OUT: 9.7

IN: Entry CNC(=O)c1ncccc1Nc1nc(Nc2cc3c(cc2OC)CCCN3C(=O)CN(C)C)nc2[nH]ccc12 please
OUT: 29.7

IN: Input COC(=O)Nc1nc2ccc(Oc3ccc(NC(=O)Nc4cc(C(F)(F)F)ccc4F)cc3)cc2s1
OUT: 17.4

IN: Consider next the compound Fc1ccc(Nc2nccc(-c3c(-c4ccc(C(F)(F)F)cc4)nn4ncccc34)n2)cc1F in the same way.
OUT: 5.42

IN: Also check Cc1c2ccc(N(C)c3ccnc(Nc4cccc(S(N)(=O)=O)c4)n3)cc2nn1C
OUT: 0.45

IN: Input COc1cc(N2CCN(C(C)C)CC2)ccc1Nc1nc(Nc2cccc3ncccc23)c2cc[nH]c2n1
OUT: 13

IN: What about this compound? CC(C)c1ccc(-c2cc(-c3c[nH]nc3-c3ccccn3)ccn2)cc1
OUT: 2.9

IN: Check CNC(=O)c1sc(-n2cnc3cc(OC)c(OC)cc32)cc1OCc1ccccc1C(F)(F)F too.
OUT: 2.86

IN: Would you mind doing NS(=O)(=O)c1ccc(N/N=C2\C(=O)Nc3cccc(CCc4ccncc4)c32)cc1 as well?
OUT: 6.21

====

# Target: Mast/stem cell growth factor receptor Kit (Homo sapiens);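 further: values given as mean inhibition of KIT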
# Cond: at 1 µM
Please provide measured inhibition for the entries that follow.
Report as a plain number; the unit % is understood.

IN: Can you look up the measured inhibition of CS(=O)(=O)CCNCc1ccoc1-c1ccc2ncnc(Nc3ccc(OCc4ccccc4)cc3)c2c1 for me?
OUT: 6.88

IN: Next compound: O=C(O[C@H]1CN[C@H](C#Cc2cc3ncnc(Nc4ccc(OCc5cccc(F)c5)c(Cl)c4)c3s2)C1)N1CCOCC1
OUT: 6.15

IN: Thanks! And COc1cccc(-n2ncc3c(N/N=C/c4ccc(C(=O)NCCN(C)C)cc4)ncnc32)c1 ?
OUT: 65.8

====

Assignment: determine reported inhibition for the given compounds.
# Target: Non-receptor tyrosine-protein kinase TNK1 (Homo sapiens);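 further: values are averaged percent inhibition of TNK1, compounds from the GSK published kinase inhibitor set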
# Sequence (whole entry): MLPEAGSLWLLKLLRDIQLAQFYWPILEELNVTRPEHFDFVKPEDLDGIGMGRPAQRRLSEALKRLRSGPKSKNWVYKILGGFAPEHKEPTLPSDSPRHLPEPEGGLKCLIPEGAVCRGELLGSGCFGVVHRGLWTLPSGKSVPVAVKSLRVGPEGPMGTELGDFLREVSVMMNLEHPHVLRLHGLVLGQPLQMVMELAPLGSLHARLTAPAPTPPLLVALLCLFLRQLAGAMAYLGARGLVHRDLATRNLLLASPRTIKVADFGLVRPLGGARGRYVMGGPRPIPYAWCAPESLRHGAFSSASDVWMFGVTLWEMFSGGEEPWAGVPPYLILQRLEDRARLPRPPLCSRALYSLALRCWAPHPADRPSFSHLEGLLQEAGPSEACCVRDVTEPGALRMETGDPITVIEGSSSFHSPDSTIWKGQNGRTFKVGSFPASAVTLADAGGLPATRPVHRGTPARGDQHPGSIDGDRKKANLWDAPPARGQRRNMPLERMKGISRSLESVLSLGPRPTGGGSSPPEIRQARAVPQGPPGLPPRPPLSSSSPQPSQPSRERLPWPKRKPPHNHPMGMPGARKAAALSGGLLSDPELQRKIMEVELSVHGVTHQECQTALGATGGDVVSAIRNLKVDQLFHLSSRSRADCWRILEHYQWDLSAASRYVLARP
# Cond: at 1 µM
Express it in %; write the number only.

IN: So what's the measured inhibition for this one? COc1cccc(-n2ncc3c(N/N=C/c4ccc(C(=O)NCCN(C)C)cc4)ncnc32)c1
OUT: 68.3

IN: Consider next the compound CCS(=O)(=O)c1ccc(OC)c(Nc2ncc(-c3cccc(F)c3)o2)c1 in the same way.
OUT: 76.5

IN: Ok, now CCS(=O)(=O)c1ccc(OC)c(Nc2ncc(-c3cccc(C(C)=O)c3)o2)c1
OUT: 66.9

IN: Please do the same for Cc1c2ccc(N(C)c3ccnc(Nc4cccc(S(N)(=O)=O)c4)n3)cc2nn1C as well.
OUT: 60.1

IN: Thanks! And COc1c(C(N)=O)cc(-c2ccc(Cl)cc2)cc1-c1ccc(S(N)(=O)=O)cc1 ?
OUT: 3.9

IN: Also c1cnn2ncc(-c3ccnc(NCCCN4CCOCC4)n3)c2c1 ?
OUT: -1.51

IN: Next: CC1(C)CC(n2cnc(-c3ccc(F)cc3)c2-c2ccnc(N)n2)CC(C)(C)N1
OUT: -1.61

IN: Same for NS(=O)(=O)c1ccc(N/N=C2\C(=O)Nc3ccc(C(=O)NCc4ccncc4)cc32)cc1
OUT: 17.5

IN: Also need N#Cc1ccc2c(-c3ccnc(NC4CC4)n3)c(-c3ccc(F)cc3)nn2c1 , thanks.
OUT: 1.77

IN: // same read-out, input: CS(=O)(=O)CCNCc1ccc(-c2ccc3ncnc(Nc4ccc(OCc5ccccc5)cc4)c3c2)o1
OUT: 16.6

IN: Next entry: CS(=O)(=O)Nc1ccc(-c2cc(-c3ccccc3)cc(C(N)=O)c2N)cc1
OUT: 5.5

IN: Input COc1ccc(-c2nn3ncccc3c2-c2ccnc(Nc3ccc(F)c(F)c3)n2)cc1
OUT: 9.68

IN: Likewise for COC(=O)Nc1nc2cc(Oc3ccc(NC(=O)Nc4ccccc4)cc3)ccc2[nH]1 ?
OUT: 4.12

IN: Another: CNC(=O)c1sc(-n2cnc3cc(OC)c(OC)cc32)cc1OCc1ccccc1C(F)(F)F
OUT: 29.1

IN: Check CN(C)CCNC(=O)Nc1ccc(N(C)c2ccnc(Nc3ccc(CS(C)(=O)=O)cc3)n2)cc1 too.
OUT: 47.1

IN: Next entry: NS(=O)(=O)c1cccc(N/C=C2\C(=O)Nc3ccccc32)c1
OUT: 5.85

IN: Check Cc1nnc(-c2cccc(-c3ccc(C(=O)NCC4CC4)cc3)c2)o1 too.
OUT: 11.3

IN: Another compound to check: N#Cc1cccc(Nc2ncc(-c3ccccc3)o2)c1
OUT: 15.4

IN: Then this compound: O=C(O[C@H]1CN[C@H](C#Cc2cc3ncnc(Nc4ccc(OCc5cccc(F)c5)c(Cl)c4)c3s2)C1)N1CCOCC1
OUT: 21.9

IN: And what about the compound COC(=O)Nc1nc2ccc(Oc3ccc(NC(=O)Nc4cc(C(F)(F)F)ccc4F)cc3)cc2s1 ?
OUT: 27.2

====

I'd appreciate it if you could supply inhibition values for the items below.
# Target: Tyrosine-protein kinase FRK (Homo sapiens);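 further: reported percent inhibition is a mean value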
# Cond: at 1 µM
Give your result in % as a bare value.

IN: Look up inhibition: CN(c1ccc(NC(=O)NCCN2CCOCC2)cc1)c1ccnc(Nc2ccc(CS(C)(=O)=O)cc2)n1
OUT: 0.89

IN: What do you have for COc1ccc(Nc2ncc(-c3ccccc3)o2)cc1OC ?
OUT: 4.33

IN: Next up: Cc1nnc(-c2cccc(-c3ccc(C(=O)NCC4CC4)cc3)c2)o1
OUT: 3.45

IN: Please do the same for CC1=C(C(=O)Nc2ccc3[nH]ncc3c2)C(c2ccc(F)cc2)N=C(c2ccc(C(F)(F)F)nc2)N1 (stereo unspecified) as well.
OUT: 1.73

IN: Also need CCS(=O)(=O)c1ccc(OC)c(Nc2ncc(-c3cccc(C(C)=O)c3)o2)c1 , thanks.
OUT: 14.2

IN: Similarly, COc1cc(Nc2ncc(-c3ccccc3)o2)cc(OC)c1 ?
OUT: 4.62

IN: Consider next the compound c1ccc(-c2n[nH]cc2-c2ccnc(-c3ccc(OCCn4ccnc4)cc3)c2)nc1 in the same way.
OUT: 2.79

IN: Please answer likewise for O=C(O[C@H]1CN[C@H](C#Cc2cc3ncnc(Nc4ccc5c(cnn5Cc5ccccc5)c4)c3s2)C1)N1CCOCC1
OUT: -1.26

IN: Entry to check: COc1ccc(-c2nn3ncccc3c2-c2ccnc(Nc3ccc(F)c(F)c3)n2)cc1
OUT: 2.26

IN: Query O=C(Nc1n[nH]c2nnc(-c3cccnc3)cc12)C1CC1 next
OUT: -0.08

IN: Also CCS(=O)(=O)c1ccc(OC)c(Nc2ncc(-c3cccc(F)c3)o2)c1 , if possible.
OUT: 46.4

IN: Further, for COc1cc2c(cc1Nc1nc(Nc3cccc(F)c3C(N)=O)c3cc[nH]c3n1)N(C(=O)CN1CCN(C(C)C)CC1)CC2 ?
OUT: 1.24

IN: Do the same for NS(=O)(=O)c1ccc(N/N=C2\C(=O)Nc3cccc(CCc4ccncc4)c32)cc1 please
OUT: -0.31

IN: Now this one: COc1cc(N2CCN(C(C)C)CC2)ccc1Nc1nc(Nc2cccc(F)c2C(=O)O)c2cc[nH]c2n1
OUT: 4.07

IN: One more compound: Cc1cc(O)cc(C)c1/C=C/c1cncc(C(N)=O)c1
OUT: 14.2

IN: Thanks! And CNC(=O)c1cncc(/C=C/c2ccccc2C)c1 ?
OUT: 1.8
